Measured values drawn from patent US20240132485A1 for this set.

Biological target: DDB1-CDK12/Cyclin K ternary complex (Homo sapiens, UniProt Q16531+Q9NYV4)
Construct: expressed in transfected cells; host or cells: HEK293T wildtype cells, transient PEI transfection
Sequence (Q9NYV4 whole entry): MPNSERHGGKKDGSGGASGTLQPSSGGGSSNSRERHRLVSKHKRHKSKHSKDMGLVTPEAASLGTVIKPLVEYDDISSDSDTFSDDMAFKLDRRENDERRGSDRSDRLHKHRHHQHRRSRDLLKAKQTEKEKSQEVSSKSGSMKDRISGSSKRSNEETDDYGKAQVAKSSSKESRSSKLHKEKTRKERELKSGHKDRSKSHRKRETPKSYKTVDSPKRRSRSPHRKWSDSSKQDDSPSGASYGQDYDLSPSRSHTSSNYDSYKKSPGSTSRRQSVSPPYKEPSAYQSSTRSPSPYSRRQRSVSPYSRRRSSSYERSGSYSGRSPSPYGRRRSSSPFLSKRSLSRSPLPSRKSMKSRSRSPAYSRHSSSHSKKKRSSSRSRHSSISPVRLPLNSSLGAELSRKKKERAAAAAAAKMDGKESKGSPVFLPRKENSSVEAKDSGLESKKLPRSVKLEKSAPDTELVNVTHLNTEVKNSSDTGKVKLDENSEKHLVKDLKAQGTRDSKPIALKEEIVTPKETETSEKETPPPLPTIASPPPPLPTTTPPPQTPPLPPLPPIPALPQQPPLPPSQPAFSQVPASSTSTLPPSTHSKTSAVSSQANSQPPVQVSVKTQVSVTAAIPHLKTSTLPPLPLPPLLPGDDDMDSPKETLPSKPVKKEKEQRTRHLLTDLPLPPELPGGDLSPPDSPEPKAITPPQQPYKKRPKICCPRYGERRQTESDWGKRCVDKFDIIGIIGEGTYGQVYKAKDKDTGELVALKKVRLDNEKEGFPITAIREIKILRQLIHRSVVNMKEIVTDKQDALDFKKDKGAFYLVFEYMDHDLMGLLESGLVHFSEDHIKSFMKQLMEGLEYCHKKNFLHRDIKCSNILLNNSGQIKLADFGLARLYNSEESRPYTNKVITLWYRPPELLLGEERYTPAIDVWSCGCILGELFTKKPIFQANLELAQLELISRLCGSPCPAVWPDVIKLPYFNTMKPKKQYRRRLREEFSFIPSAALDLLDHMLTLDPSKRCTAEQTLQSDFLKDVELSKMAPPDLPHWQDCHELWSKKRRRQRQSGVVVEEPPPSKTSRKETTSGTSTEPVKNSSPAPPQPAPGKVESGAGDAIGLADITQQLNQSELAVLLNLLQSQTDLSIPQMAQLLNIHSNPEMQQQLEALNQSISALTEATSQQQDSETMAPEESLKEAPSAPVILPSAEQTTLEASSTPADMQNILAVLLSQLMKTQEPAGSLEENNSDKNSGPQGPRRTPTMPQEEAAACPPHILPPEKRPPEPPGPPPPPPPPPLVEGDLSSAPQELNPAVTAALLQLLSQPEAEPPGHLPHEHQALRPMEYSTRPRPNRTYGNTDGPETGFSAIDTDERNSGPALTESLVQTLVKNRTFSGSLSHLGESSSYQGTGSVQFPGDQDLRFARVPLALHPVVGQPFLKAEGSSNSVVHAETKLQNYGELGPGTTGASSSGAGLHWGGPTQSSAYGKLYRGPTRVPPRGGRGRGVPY
Sequence (Q16531 whole entry): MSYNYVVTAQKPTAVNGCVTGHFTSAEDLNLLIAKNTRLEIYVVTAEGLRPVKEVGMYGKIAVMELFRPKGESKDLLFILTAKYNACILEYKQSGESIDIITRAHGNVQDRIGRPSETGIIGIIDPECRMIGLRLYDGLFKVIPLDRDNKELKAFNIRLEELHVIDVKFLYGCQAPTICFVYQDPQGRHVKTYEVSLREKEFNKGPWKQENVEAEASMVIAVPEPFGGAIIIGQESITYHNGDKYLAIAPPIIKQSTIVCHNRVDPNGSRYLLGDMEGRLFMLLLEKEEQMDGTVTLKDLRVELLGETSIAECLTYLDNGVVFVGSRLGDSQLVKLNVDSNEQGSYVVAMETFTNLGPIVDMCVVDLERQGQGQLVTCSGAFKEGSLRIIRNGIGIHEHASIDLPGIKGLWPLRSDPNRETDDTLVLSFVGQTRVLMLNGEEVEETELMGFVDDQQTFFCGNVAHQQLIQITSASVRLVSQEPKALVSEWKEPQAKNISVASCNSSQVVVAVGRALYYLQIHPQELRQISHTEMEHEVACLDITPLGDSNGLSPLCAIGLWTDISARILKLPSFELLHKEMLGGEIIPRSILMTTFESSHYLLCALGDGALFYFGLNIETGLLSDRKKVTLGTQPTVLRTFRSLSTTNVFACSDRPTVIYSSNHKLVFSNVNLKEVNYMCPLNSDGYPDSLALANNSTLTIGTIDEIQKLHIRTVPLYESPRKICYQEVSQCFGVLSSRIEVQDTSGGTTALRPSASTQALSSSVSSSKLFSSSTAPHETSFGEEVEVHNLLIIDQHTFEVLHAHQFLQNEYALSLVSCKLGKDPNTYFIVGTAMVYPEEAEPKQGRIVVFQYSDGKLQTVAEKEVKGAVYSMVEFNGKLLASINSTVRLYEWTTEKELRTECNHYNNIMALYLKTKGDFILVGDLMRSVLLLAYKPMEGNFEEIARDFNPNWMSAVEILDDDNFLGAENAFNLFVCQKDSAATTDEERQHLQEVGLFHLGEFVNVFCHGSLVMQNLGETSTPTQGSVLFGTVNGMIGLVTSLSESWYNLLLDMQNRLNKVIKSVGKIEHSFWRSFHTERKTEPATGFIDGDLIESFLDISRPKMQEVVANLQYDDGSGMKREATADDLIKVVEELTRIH
Sequence (O75909 whole entry partner): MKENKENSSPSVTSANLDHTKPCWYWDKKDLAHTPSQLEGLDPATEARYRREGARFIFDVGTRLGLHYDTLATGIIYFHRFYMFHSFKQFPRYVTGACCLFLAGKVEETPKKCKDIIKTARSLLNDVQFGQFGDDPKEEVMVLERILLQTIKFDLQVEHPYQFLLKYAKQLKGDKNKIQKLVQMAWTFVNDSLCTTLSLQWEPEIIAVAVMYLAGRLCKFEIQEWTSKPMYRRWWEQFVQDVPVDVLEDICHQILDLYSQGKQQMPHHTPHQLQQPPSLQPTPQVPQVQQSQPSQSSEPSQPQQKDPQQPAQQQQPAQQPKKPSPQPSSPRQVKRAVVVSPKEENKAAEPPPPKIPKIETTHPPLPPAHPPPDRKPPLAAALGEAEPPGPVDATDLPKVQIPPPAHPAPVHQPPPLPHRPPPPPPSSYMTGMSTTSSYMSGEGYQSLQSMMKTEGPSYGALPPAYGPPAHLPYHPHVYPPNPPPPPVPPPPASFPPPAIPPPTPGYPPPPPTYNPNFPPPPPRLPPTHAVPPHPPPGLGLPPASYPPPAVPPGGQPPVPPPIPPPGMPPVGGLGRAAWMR
Assay: NanoBRET EC50 assay (HaloTag_CDK12 / NanoLuc_DDB1 in HEK293T)
Format: cell-based
readout_type: activity in NanoBRET assay (ternary complex formation), in words

substance_smiles	test_result
O=C(Cc1cn2cc(F)ccc2n1)Nc1ncc(C(F)(F)F)s1	particularly exceptional
O=C(Cc1cn2cc(Cl)ccc2n1)Nc1cc(C2CC2)[nH]n1	particularly exceptional

====

Tested on: KBM7 cells (wild-type)
Experiment: KBM7 CTG EC50 assay (UBE2M wild-type)
Assay type: cell-based, human
Details: ratio of anti-proliferative activity in KBM7 wild-type versus UBE2M knock-out cells (fold)
readout_type: Ratio UBE2M WT to KO
Could you keep your reply to the number by itself?

Study these solved cases before continuing.
compound	Ratio UBE2M WT to KO
O=C(Cc1cccc2ccncc12)Nc1ncc(C(F)(F)F)s1	64.7
Cc1cc(N2CC(C(=O)Nc3ncc(C(F)(F)F)s3)CC2=O)ccc1F (stereo not drawn)	17.0
Cc1cccn2cc(CC(=O)Nc3ncc(C(F)(F)F)s3)nc12	42.4
Cc1ccc2c(CC(=O)Nc3ncc(C4CC4)s3)coc2c1C	8.5

Moving on to another compound below.
In: Report Ratio UBE2M WT to KO for `Cc1ccc2c(CC(=O)Nc3ccc(C4CC4)cn3)coc2c1C` please.
Out: 27.0

====

As shown below, each of these molecules has a reported Ratio UBE2M WT to KO value.
Tested on: KBM7 cells (wild-type)
Assay: KBM7 CTG EC50 assay (UBE2M wild-type)
Format: cell-based, human
Conditions: ratio of anti-proliferative activity in KBM7 wild-type versus UBE2M knock-out cells (fold)

Study these solved cases before continuing.
molecule	readout_type	test_result
Cc1cc(NC(=O)Cc2cn3cc(F)ccc3n2)n[nH]1	Ratio UBE2M WT to KO	>10
O=C(Nc1ncc(C(F)(F)F)s1)C1CC(=O)N(Cc2ccccc2)C1 (centres unmarked)	Ratio UBE2M WT to KO	>10
O=C(Nc1ncc(C(F)(F)F)s1)C1CC(=O)N(c2ccc(Cl)cc2)C1 (centres unmarked)	Ratio UBE2M WT to KO	>10
Cc1ccc2ncn(CC(=O)Nc3ncc(C(F)(F)F)s3)c2c1	Ratio UBE2M WT to KO	>4

Moving on to another molecule below.
In: // fetch KBM7 cells (wild-type) Ratio UBE2M WT to KO for O=C(Nc1ncc(C(F)(F)F)s1)C1CC(=O)N(c2ccccc2Cl)C1 (centres unmarked)
Out: >10

====

Tested on: KBM7 cells (wild-type)
Assay: KBM7 CTG EC50 assay (UBE2M wild-type)
Assay type: cell-based, human
Details: ratio of anti-proliferative activity in KBM7 wild-type versus UBE2M knock-out cells (fold)
readout_type: Ratio UBE2M WT to KO
Could you keep your reply to the number by itself?

In: Report Ratio UBE2M WT to KO for `COc1cc2ncn(CCC(=O)Nc3ncc(C(F)(F)F)s3)c(=O)c2cc1OC` please.
Out: 21.9

In: Report Ratio UBE2M WT to KO for `Cc1ccc2c(CC(=O)Nc3ncc(Cl)s3)coc2c1C` please.
Out: 23.5

====

Molecular target: DDB1-CDK12/Cyclin K ternary complex (Homo sapiens, UniProt Q16531+Q9NYV4)
Assay: NanoBRET EC50 assay (HaloTag_CDK12 / NanoLuc_DDB1 in HEK293T)
Conditions: 10-point titration from 20 μM, HEK293T; read-out: NanoBRET EC50 Activity Class
As shown below, each of these molecules has a reported EC50 value.

molecule	EC50
O=C(Nc1ncc(C(F)(F)F)s1)C1CC(=O)N(c2cc(F)ccc2F)C1 (stereo not shown) [Example 3-22]	> 10000 nM
O=C(Cc1cn2cc(F)ccc2n1)Nc1cc(C(F)(F)F)[nH]n1 [Example 3-59]	> 10000 nM
Cc1ccc2c(CC(=O)Nc3ccc(Br)cn3)coc2c1C [Example 3-53]	> 10000 nM

In: Report EC50 for O=C(Cc1cn2cc(F)ccc2n1)Nc1ncc(C2CC2)s1 [Example 3-43] please.
Out: ≤ 250 nM

In: Report EC50 for COc1cc(Br)cn2cc(CC(=O)Nc3ncc(C(F)(F)F)s3)nc12 [Example 3-9] please.
Out: ≤ 250 nM

In: Report EC50 for Cc1ccc2c(CC(=O)Nc3ncc(Cl)s3)coc2c1C [Example 3-3] please.
Out: > 10000 nM

In: Report EC50 for O=C(Cc1cn2cc(Cl)ccc2n1)Nc1cc(C2CC2)[nH]n1 [Example 3-66] please.
Out: ≤ 250 nM

====

System: KBM7 cells (wild-type)
Test: KBM7 CTG EC50 assay (UBE2M wild-type)
Assay type: cell-based, human
Conditions: ratio of anti-proliferative activity in KBM7 wild-type versus UBE2M knock-out cells (fold)
As shown below, each of these molecules has a reported Ratio UBE2M WT to KO value.
Could you keep your reply to the number by itself?

molecule	Ratio UBE2M WT to KO
COc1cc(Br)cn2cc(CC(=O)Nc3ncc(C(F)(F)F)s3)nc12	2.0
CC(C(=O)Nc1ncc(C(F)(F)F)s1)c1cnc2ccccc2c1 (stereo not shown)	15.1

In: Report Ratio UBE2M WT to KO for `Cc1ccc2c(CC(=O)Nc3ccc(Cl)cn3)coc2c1C` please.
Out: 9.2

====

Tested on: KBM7 cells (wild-type)
Assay: KBM7 CTG EC50 assay (UBE2M wild-type)
Type: cell-based, human
Conditions: ratio of anti-proliferative activity in KBM7 wild-type versus UBE2M knock-out cells (fold)
readout_type: Ratio UBE2M WT to KO

compound	Ratio UBE2M WT to KO
O=C(Cc1cn2cc(F)ccc2n1)Nc1cc(Br)[nH]n1	>10

In: // fetch KBM7 cells (wild-type) Ratio UBE2M WT to KO for `O=C(Cc1cn2cc(F)ccc2n1)Nc1cc(Cl)[nH]n1`
Out: >9

In: // fetch KBM7 cells (wild-type) Ratio UBE2M WT to KO for Cc1ccc(CN2CC(C(=O)Nc3ncc(C(F)(F)F)s3)CC2=O)cc1 (centres unmarked)
Out: >16

In: // fetch KBM7 cells (wild-type) Ratio UBE2M WT to KO for `O=C(Cc1cc2ccccc2o1)Nc1ncc(C(F)(F)F)s1`
Out: >2

In: // fetch KBM7 cells (wild-type) Ratio UBE2M WT to KO for `Cc1ccc2c(ccn2CC(=O)Nc2ncc(C(F)(F)F)s2)c1`
Out: >4

In: // fetch KBM7 cells (wild-type) Ratio UBE2M WT to KO for `O=C(Cc1cccc2cnccc12)Nc1ncc(C(F)(F)F)s1`
Out: >1

In: // fetch KBM7 cells (wild-type) Ratio UBE2M WT to KO for `Cc1c(CC(=O)Nc2ncc(C(F)(F)F)s2)sc2ccccc12`
Out: >10

In: // fetch KBM7 cells (wild-type) Ratio UBE2M WT to KO for `Cc1ccc(NC(=O)Cc2coc3c(C)c(C)ccc23)nc1`
Out: >10

====

As shown below, each of these compounds has a reported Ratio UBE2M WT to KO value.
Test system: KBM7 cells (wild-type)
Experiment: KBM7 CTG EC50 assay (UBE2M wild-type)
Type: cell-based, human
Conditions: ratio of anti-proliferative activity in KBM7 wild-type versus UBE2M knock-out cells (fold)

Study these solved cases before continuing.
compound	test_result
O=C(Cc1c[nH]c2ncccc12)Nc1ncc(C(F)(F)F)s1	>10
O=C(Nc1ncc(C(F)(F)F)s1)C1CC(=O)N(c2ccc(F)c(F)c2)C1 (stereo not shown)	>10
O=C(Cc1cncc2ccccc12)Nc1ncc(C(F)(F)F)s1	>3

Moving on to another compound below.
In: // fetch KBM7 cells (wild-type) Ratio UBE2M WT to KO for `CC(C)c1ccc(NC(=O)Cc2cn3cc(F)ccc3n2)nc1`
Out: >20

====

As shown below, each of these compounds has a reported EC50 value.
Target: DDB1-CDK12/Cyclin K ternary complex (Homo sapiens, UniProt Q16531+Q9NYV4)
Experiment: NanoBRET EC50 assay (HaloTag_CDK12 / NanoLuc_DDB1 in HEK293T)
Settings: 10-point titration from 20 μM, HEK293T; read-out: NanoBRET EC50 Activity Class
Method: This assay measures the interaction/recruitment of CDK12/Cyclin K to DDB1, mechanistically validating the molecular glue pharmacology. HEK293T wildtype cells are seeded 800 k cells/well (DMEM+10% FBS+1% PS) in a 6-well plate and allowed to attach for ˜7 hours followed by a transient transfection of 1.5 μg HaloTag_CDK12 Plasmid [Table 1] and 0.15 μg NanoLuc_DDB1 plasmid [Table 1] per well using PEI. […]

Study these solved cases before continuing.
compound	test_target	test_result
CC(C(=O)Nc1ncc(C(F)(F)F)s1)c1cnc2ccccc2c1 (stereo not drawn)	DDB1-CDK12/Cyclin K ternary complex (Homo sapiens, UniProt Q16531+Q9NYV4)	≤ 250 nM
Cc1cnc(NC(=O)Cc2coc3c(C)c(C)ccc23)s1	DDB1-CDK12/Cyclin K ternary complex (Homo sapiens, UniProt Q16531+Q9NYV4)	≤ 250 nM

Moving on to another compound below.
In: Report EC50 for `O=C(Cc1ccc2ncccc2c1)Nc1ncc(C(F)(F)F)s1` please.
Out: ≤ 250 nM
